Biological target: CYP3A4 (Homo sapiens, UniProt P08684)
Sequence (P08684 whole entry): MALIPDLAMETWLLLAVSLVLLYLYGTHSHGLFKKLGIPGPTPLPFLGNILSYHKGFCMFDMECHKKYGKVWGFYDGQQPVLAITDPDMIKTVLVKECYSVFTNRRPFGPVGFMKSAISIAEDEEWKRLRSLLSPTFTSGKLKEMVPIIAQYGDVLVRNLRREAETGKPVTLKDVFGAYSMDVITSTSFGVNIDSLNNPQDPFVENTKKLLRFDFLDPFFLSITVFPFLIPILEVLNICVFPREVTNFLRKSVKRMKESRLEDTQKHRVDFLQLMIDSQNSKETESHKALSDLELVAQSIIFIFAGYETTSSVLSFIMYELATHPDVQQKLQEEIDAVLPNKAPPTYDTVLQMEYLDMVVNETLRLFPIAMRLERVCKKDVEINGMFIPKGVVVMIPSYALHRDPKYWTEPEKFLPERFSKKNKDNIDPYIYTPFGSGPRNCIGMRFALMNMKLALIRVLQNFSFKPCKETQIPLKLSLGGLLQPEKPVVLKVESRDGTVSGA
Experiment: Kinetics of heme reduction of inhibitor-bound CYP3A4 with sodium dithionite
Parameters: Codon-optimized full-length and Δ3–22 human CYP3A4 were produced as reported previously [45] and used for assays and crystallization, respectively; made in house
Conditions: k ET; heme reduction by sodium dithionite
Measurement Label: portion of the protein reduced (%)

Guide cases for portion of the protein reduced, answers given:
                                   molecule  numeric_value
0  CC(C)(C)OC(=O)N[C@H](CS[C@@H](Cc1ccccc1)C(=O)NCCCc1cccnc1)Cc1ccccc1             77
1  CC(C)(C)OC(=O)NC(CSC(Cc1ccccc1)C(=O)NCCCc1cccnc1)Cc1cccc2ccccc12 (stereo not shown) [Compound 3g]             75
2  CC(C)(C)OC(=O)N[C@@H](CS[C@H](Cc1ccccc1)C(=O)NCCCc1cccnc1)Cc1cccc2ccccc12             97
3  CC(C)(C)OC(=O)NC(CSC(Cc1ccccc1)C(=O)NCCOCc1cccnc1)Cc1ccccc1 (stereo not shown)             65
4  CC(C)(C)OC(=O)N[C@H](CS[C@@H](Cc1ccccc1)C(=O)NCCCc1cccnc1)Cc1cccc2ccccc12             72

[a] CC(C)(C)OC(=O)NC(CSC(Cc1ccccc1)C(=O)NCCCc1cccnc1)Cc1ccccc1 (stereo not shown)
[b] CC(C)(C)OC(=O)NC(CSCC(Nc1ccccc1)C(=O)NCCCc1cccnc1)Cc1ccccc1 (stereo not shown)
Could you determine which record has the numerically smaller portion of the protein reduced? Candidates: a and b Write the label of whichever entry you select.
b

Origin of values: paper PMC7830545
